A collection of compounds and their measured EC50
procedure-details: Luminescence Cell-Based Dose Response HTS to Identify Activators of Luciferase Translation or Activity in H4 […] Cells. [Related pubchem assays: 1829 (Project Summary), 1814 (Primary HTS)]
Type: functional
Active and inactive are the calls of the source.

Cn1c(C(=O)NCCc2c[nH]c3ccccc23)cc2sccc21 | 21.7 µM (active)
Cc1ccc(NC(=O)c2cc(=O)c3ccccc3o2)cc1 | 17.9 µM (active)

Turning now to a further compound:
Requested field: EC50. Item: CC1CCCN(C(=O)CSc2cnc3ccccc3n2)C1 (stereo not drawn) 5.25 µM (active)

###

system-name: Cytochrome P450 2C19 (Homo sapiens, UniProt P33261)
Sequence (P33261 whole entry): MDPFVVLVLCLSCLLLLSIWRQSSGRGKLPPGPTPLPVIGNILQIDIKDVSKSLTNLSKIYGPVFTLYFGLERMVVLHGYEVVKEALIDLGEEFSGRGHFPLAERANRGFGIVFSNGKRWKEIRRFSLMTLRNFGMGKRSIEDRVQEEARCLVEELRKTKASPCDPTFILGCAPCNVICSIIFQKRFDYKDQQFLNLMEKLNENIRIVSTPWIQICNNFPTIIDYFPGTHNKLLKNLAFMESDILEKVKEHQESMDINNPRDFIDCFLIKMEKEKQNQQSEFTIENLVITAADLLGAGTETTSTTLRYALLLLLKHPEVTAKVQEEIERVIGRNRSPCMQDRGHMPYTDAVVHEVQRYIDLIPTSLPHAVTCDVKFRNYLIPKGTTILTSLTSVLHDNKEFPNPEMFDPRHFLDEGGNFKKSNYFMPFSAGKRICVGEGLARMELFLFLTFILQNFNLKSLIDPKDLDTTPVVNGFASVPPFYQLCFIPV
procedure-details: Cytochrome panel assay with activity outcomes. Panel member name: p450-cyp2c19 Compounds with AC50 equal or less than 10 uM are considered active
Format: functional
applied-conditions: read-out: AC50
measured-endpoint: AC50

// worked examples, AC50 included
COc1cc(C(=O)NCC(c2cccnc2)N2CCN(C)CC2)cc(OC)c1OC (stereo not given) | 39.8 µM (inconclusive)
O=c1c(-c2cccs2)nc2cnc(Oc3ccccc3)nc2n1C1CC1 | 1.58 µM (inconclusive)
O=C(CSc1ncccn1)Nc1ccc(S(=O)(=O)N2CCCCC2)cc1 | 25.1 µM (inconclusive)
COc1ccc(-n2c(C)cc(C=O)c2C)cc1Cl | 3.98 µM (inconclusive)
Cc1ncsc1C(=O)N1N=C2/C(=C/c3ccccc3)CCCC2C1c1ccccc1 (stereo not given) | 17.8 µM (inconclusive)

Requested field: AC50. Item: Cc1ccc(NC(=O)C2CC(=O)n3c(nc4ccccc43)N2)cc1 (stereo not given) 6.31 µM (inconclusive)

Requested field: AC50. Item: COC(=O)Cn1c(C(=O)N(C)C)cc2c1C[C@H]1CN(C(=O)c3ccccc3)[C@@](Cc3ccc(OC)cc3)(C(=O)OC)[C@@H]21 20 µM (inconclusive)

Requested field: AC50. Item: O=C(O)C1C2C=CC(C2)C1C(=O)N1CCN(C/C=C/c2ccccc2)CC1 (stereo not given) 14.1 µM (inconclusive)

Requested field: AC50. Item: C=CCn1c(SCC(=O)Nc2ncc(Cc3ccc(Br)cc3)s2)nnc1-c1ccncc1 2.82 µM (inconclusive)

Requested field: AC50. Item: CCOC(=O)N1CCC(NS(=O)(=O)c2ccc3c(c2)C(C)(C)C(=O)N3C)CC1 11.2 µM (inconclusive)

###

Below are IC50 values recorded for Glyceraldehyde-3-phosphate dehydrogenase (Homo sapiens, UniProt P04406).

// worked examples, IC50 included
Cc1ccc(-c2nc(N)nn2-c2ccccc2)cc1 | > 100 µM (not active)
COc1ccc(S(=O)(=O)Nc2cnc3ccccc3c2)cc1OC | > 100 µM (not active)
Cc1ccc(-c2cc(C(=O)O)[nH]n2)cc1C | > 100 µM (not active)
COc1ccc(NC(=O)C(=O)O)cc1 | > 100 µM (not active)
Cc1cc(NS(=O)(=O)c2ccc(NC(=O)C(F)(F)F)cc2)no1 | > 100 µM (not active)

Requested field: IC50. Item: COc1cccc(N2C(=O)C(Cl)=C(N3CCN(CCO)CC3)C2=O)c1 > 50 µM (inconclusive)

Requested field: IC50. Item: Cc1ccc(Cl)c(N2C(=O)C(Cl)=C(Cl)C2=O)c1Cl > 100 µM (not active)

Requested field: IC50. Item: CN(C)C1=C(Cl)C(=O)N(c2ccnc(Cl)c2)C1=O > 50 µM (inconclusive)

Requested field: IC50. Item: Cc1ccc(N2C(=O)C(Cl)=C(N3CCOCC3)C2=O)cc1 > 50 µM (inconclusive)
